Where do these numbers come from? They come from the supplement of paper PMC11061612.

Recorded combination Emax for the following compounds
test system: HCC1419 (Breast Carcinoma); experiment: combination Emax (second highest fraction inhibited in the dose matrix, 72 h); higher = more inhibition; extreme values may be limits of the assay
Respond with the number and no other words.

Some entries whose results are on file:
C[C@@H]1COCCN1c1cc(C2([S@](C)(=N)=O)CC2)nc(-c2ccnc3[nH]ccc23)n1 [AZD6738] + O=C(c1cc(Cc2n[nH]c(=O)c3ccccc23)ccc1F)N1CCN(C(=O)C2CC2)CC1 [Olaparib] (first compound max 10 µM, 7x7, partner max 10 µM) = 0.191
COc1cccc(OCCCN)c1-c1cc(Nc2cnc(C#N)cn2)n[nH]1 [Prexasertib] + O=C(c1cc(Cc2n[nH]c(=O)c3ccccc23)ccc1F)N1CCN(C(=O)C2CC2)CC1 [Olaparib] (first compound max 1 µM, 7x7, partner max 10 µM) = 0.266
COc1cccc2c1C(=O)c1c(O)c3c(c(O)c1C2=O)C[C@@](O)(C(=O)CO)C[C@@H]3O[C@H]1C[C@H](N)[C@H](O)[C@H](C)O1 [Doxorubicin] + Cc1cc2ncnn2cc1Nc1ncc2c(n1)n(C1CCOCC1)c(=O)n2C [AZD7648] (first compound max 1 µM, 7x7, partner max 10 µM) = 0.535
CCN(CCO)CCCOc1ccc2c(Nc3cc(CC(=O)Nc4cccc(F)c4)[nH]n3)ncnc2c1 [AZD2811] + C[C@@H]1COCCN1C2=NC(=NC(=C2)C3(CC3)[S@](=N)(=O)C)C4=C5C=CNC5=NC=C4 [AZD6738] (first compound max 1 µM, 7x7, partner max 10 µM) = 0.0919

Then there is this compound:
Short answer on HCC1419 (Breast Carcinoma) for CCN(CCO)CCCOc1ccc2c(Nc3cc(CC(=O)Nc4cccc(F)c4)[nH]n3)ncnc2c1 [AZD2811] + C=CCn1c(=O)c2cnc(Nc3ccc(N4CCN(C)CC4)cc3)nc2n1-c1cccc(C(C)(C)O)n1 [AZD1775] (first compound max 1 µM, partner max 1 µM) , combination Emax: 0.0861

====

tested on: HCC1419 (Breast Carcinoma); experiment: combination Emax (second highest fraction inhibited in the dose matrix, 72 h); higher = more inhibition; extreme values may be limits of the assay
Experimental Readout: combination Emax
Respond with the number and no other words.

Some entries whose results are on file:
Cc1c2c(nn1C)CSCc1cc(n(C)n1)CSc1cc(c3ccccc3c1)OCCCc1c(C(=O)O)n(C)c3c-2c(Cl)ccc13 [AZD5991] + C[C@@H](Nc1cc(F)cc(F)c1)c1cc(C(=O)N(C)C)cc2c(=O)cc(N3CCOCC3)oc12 [AZD8186] (first compound max 1 µM, 7x7, partner max 3 µM) = 0.344
C[C@@H](c1ccc2nccn2c1)n1nnc2ncc(-c3cnn(C)c3)nc21 [Savolitinib] + Cc1c2c(nn1C)CSCc1cc(n(C)n1)CSc1cc(c3ccccc3c1)OCCCc1c(C(=O)O)n(C)c3c-2c(Cl)ccc13 [AZD5991] (first compound max 1 µM, 7x7, partner max 1 µM) = 0.255

Then there is this compound:
// combination Emax lookup, compound = COc1cc2c(cc1OCCCCCOc1cc3c(cc1OC)C(=O)N1C=C(C)C[C@H]1C=N3)N=C[C@@H]1CC(C)=CN1C2=O [SG3199] + O=C(c1cc(Cc2n[nH]c(=O)c3ccccc23)ccc1F)N1CCN(C(=O)C2CC2)CC1 [Olaparib] (first compound max 0.001 µM, 7x7, partner max 10 µM) , result: 0.0746

====

Recorded combination Emax for the following molecules
test system: SJSA-1 (Osteosarcoma); experiment: combination Emax (second highest fraction inhibited in the dose matrix, 72 h); higher = more inhibition; extreme values may be limits of the assay

N#Cc1cnc(Nc2cc(NC[C@H]3CNCCO3)c(C(F)(F)F)cn2)cn1 [SRA737] + Nc1ccn([C@@H]2O[C@H](CO)[C@@H](O)C2(F)F)c(=O)n1 [Gemcitabine] (first compound max 10 µM, 7x7, partner max 0.3 µM) = 0.681

Then there is this molecule:
Short answer on SJSA-1 (Osteosarcoma) for CN(C)CCCOc1ccc(-c2ccc3ncc4c(c3c2)n(C2CCOCC2)c(=O)n4C)cn1 [AZD0156] + CCN(CCO)CCCOc1ccc2c(Nc3cc(CC(=O)Nc4cccc(F)c4)[nH]n3)ncnc2c1 [AZD2811] (first compound max 1 µM, 7x7, partner max 1 µM) , combination Emax: 0.123

====

system: SUP-B15 (B-Lymphoblastic Leukemia); assay: combination Emax (second highest fraction inhibited in the dose matrix, 72 h); higher = more inhibition; extreme values may be limits of the assay
Experimental Readout: combination Emax

Some entries whose results are on file:
CN(CCO)CC[C@H](CSc1ccccc1)Nc1ccc(S(=O)(=O)NC(=O)c2ccc(N3CCC([C@@H](O)c4ccccc4-c4ccc(Cl)cc4)CC3)cc2)cc1S(=O)(=O)C(F)(F)F [AZD4320] + CCN(CCO)CCCOc1ccc2c(Nc3cc(CC(=O)Nc4cccc(F)c4)[nH]n3)ncnc2c1 [AZD2811] (first compound max 1 µM, 7x7, partner max 1 µM) = 1
Cc1c2c(nn1C)CSCc1cc(n(C)n1)CSc1cc(c3ccccc3c1)OCCCc1c(C(=O)O)n(C)c3c-2c(Cl)ccc13 [AZD5991] + C1CN(CCC1(C(=O)N[C@@H](CCO)C2=CC=C(C=C2)Cl)N)C3=NC=NC4=C3C=CN4 [Capivasertib] (first compound max 1 µM, 7x7, partner max 3 µM) = 1

Then there is this compound:
// combination Emax lookup, compound = NC1(C(=O)N[C@@H](CCO)c2ccc(Cl)cc2)CCN(c2ncnc3[nH]ccc23)CC1 [Capivasertib] + CCN(CCO)CCCOc1ccc2c(Nc3cc(CC(=O)Nc4cccc(F)c4)[nH]n3)ncnc2c1 [AZD2811] (first compound max 10 µM, 7x7, partner max 1 µM) , result: 0.929

====

test system: DAN-G (Pancreatic Carcinoma); assay: Bliss excess, mean over the matrix (fraction); higher = more synergy;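 further: after 72 h of two-drug dosing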
Experimental Readout: Bliss excess
Respond with the number and no other words.

Cc1cc2ncnn2cc1Nc1ncc2c(n1)n(C1CCOCC1)c(=O)n2C [AZD7648] + O=C(c1cc(Cc2n[nH]c(=O)c3ccccc23)ccc1F)N1CCN(C(=O)C2CC2)CC1 [Olaparib] (first compound max 10 µM, 7x7, partner max 10 µM) = -0.0568
CN(CCO)CC[C@H](CSc1ccccc1)Nc1ccc(S(=O)(=O)NC(=O)c2ccc(N3CCC([C@@H](O)c4ccccc4-c4ccc(Cl)cc4)CC3)cc2)cc1S(=O)(=O)C(F)(F)F [AZD4320] + CCN(CCO)CCCOc1ccc2c(Nc3cc(CC(=O)Nc4cccc(F)c4)[nH]n3)ncnc2c1 [AZD2811] (first compound max 1 µM, 7x7, partner max 1 µM) = 0.0038
COc1cccc(OCCCN)c1-c1cc(Nc2cnc(C#N)cn2)n[nH]1 [Prexasertib] + Cc1cc2ncnn2cc1Nc1ncc2c(n1)n(C1CCOCC1)c(=O)n2C [AZD7648] (first compound max 1 µM, 7x7, partner max 10 µM) = -0.0095
CC(=O)c1c(C)c2cnc(Nc3ccc(N4CCNCC4)cn3)nc2n(C2CCCC2)c1=O [Palbociclib] + CN(CC[C@H](CSC1=CC=CC=C1)NC2=C(C=C(C=C2)S(=O)(=O)NC(=O)C3=CC=C(C=C3)N4CCC(CC4)[C@H](C5=CC=CC=C5C6=CC=C(C=C6)Cl)O)S(=O)(=O)C(F)(F)F)CCO [AZD4320] (first compound max 10 µM, 7x7, partner max 1 µM) = -0.0408
CN(CCO)CC[C@H](CSc1ccccc1)Nc1ccc(S(=O)(=O)NC(=O)c2ccc(N3CCC([C@@H](O)c4ccccc4-c4ccc(Cl)cc4)CC3)cc2)cc1S(=O)(=O)C(F)(F)F [AZD4320] + C[C@@H](Nc1cc(F)cc(F)c1)c1cc(C(=O)N(C)C)cc2c(=O)cc(N3CCOCC3)oc12 [AZD8186] (first compound max 1 µM, 7x7, partner max 3 µM) = 0.0484
Cc1cc2ncnn2cc1Nc1ncc2c(n1)n(C1CCOCC1)c(=O)n2C [AZD7648] + CN(C)CCCOc1ccc(-c2ccc3ncc4c(c3c2)n(C2CCOCC2)c(=O)n4C)cn1 [AZD0156] (first compound max 10 µM, 7x7, partner max 1 µM) = -0.0168

Short answer on DAN-G (Pancreatic Carcinoma) for C=CCn1c(=O)c2cnc(Nc3ccc(N4CCN(C)CC4)cc3)nc2n1-c1cccc(C(C)(C)O)n1 [AZD1775] + C1CN(CCC1(C(=O)N[C@@H](CCO)C2=CC=C(C=C2)Cl)N)C3=NC=NC4=C3C=CN4 [Capivasertib] (first compound max 3 µM, partner max 3 µM) , Bliss excess: -0.0191

Short answer on DAN-G (Pancreatic Carcinoma) for CC1(C)CCC(CN2CCN(c3ccc(C(=O)NS(=O)(=O)c4ccc(NCC5CCOCC5)c([N+](=O)[O-])c4)c(Oc4cnc5[nH]ccc5c4)c3)CC2)=C(c2ccc(Cl)cc2)C1 [Venetoclax] + C1CN(CCC1(C(=O)N[C@@H](CCO)C2=CC=C(C=C2)Cl)N)C3=NC=NC4=C3C=CN4 [Capivasertib] (first compound max 1 µM, 7x7, partner max 3 µM) , Bliss excess: -0.0689

Short answer on DAN-G (Pancreatic Carcinoma) for Cc1c2c(nn1C)CSCc1cc(n(C)n1)CSc1cc(c3ccccc3c1)OCCCc1c(C(=O)O)n(C)c3c-2c(Cl)ccc13 [AZD5991] + C[C@@H](Nc1cc(F)cc(F)c1)c1cc(C(=O)N(C)C)cc2c(=O)cc(N3CCOCC3)oc12 [AZD8186] (first compound max 1 µM, 7x7, partner max 3 µM) , Bliss excess: 0.0051
